Data provenance: patent US20240408222A1

Test system: SUM149
Experiment: Cytotoxicity in vitro (MTT) in presence/absence of elastase
Type: cell-based
Settings: SUM149, without (−) neutrophil elastase, 72 h
pIC50: −log10 of the molar value.
property label: pIC50

compound="CCCNC(=O)Nc1cccc(S(=O)(=O)Nc2cccc([C@@H](CC(=O)O)NC(=O)Nc3ccc(NC(=O)NCCN(C)CCN(C)CCN(C)CC(=O)N[C@@H](CC(N)=O)C(=O)N4CCC[C@H]4C(=O)N[C@H](C(=O)N=[S@@](C)(=O)Cc4cc5cc(c4)OCCCCCNc4cc(ccc4F)-c4nc(ncc4F)N5)C(C)C)cc3)c2)c1 (relative stereo)" property_label=pIC50 reported_result="7.00 to 7.96"
compound="CCCNC(=O)Nc1cccc(S(=O)(=O)Nc2cccc([C@@H](CC(=O)O)NC(=O)Nc3ccc(NC(=O)NCCN(C)CCN(C)CCN(C)CC(=O)N[C@@H](CC(N)=O)C(=O)N4CCC[C@H]4C(=O)N[C@H](C(=O)N=[S@](C)(=O)Cc4cc5cc(c4)OCCCCCNc4cc(ccc4F)-c4nc(ncc4F)N5)C(C)C)cc3)c2)c1 (relative stereo)" property_label=pIC50 reported_result="7.00 to 7.96"
compound="CCCNC(=O)Nc1cccc(S(=O)(=O)Nc2cccc([C@@H](CC(=O)O)NC(=O)Nc3ccc(NC(=O)N(C)CCN(C)CCN(C)CC(=O)N[C@@H](CC(N)=O)C(=O)N4CCC[C@H]4C(=O)N[C@H](C(=O)N=S(C)(=O)Cc4cc5cc(c4)OC(C)CCOc4cc(F)ccc4-c4nc(ncc4F)N5)C(C)C)cc3)c2)c1 (relative stereo)" property_label=pIC50 reported_result="7.00 to 7.96"
compound=CCCNC(=O)Nc1cccc(S(=O)(=O)Nc2cccc([C@H](CC(=O)O)NC(=O)Nc3ccc(NC(=O)NCCOCCOCCOCCC(=O)NCCCC[C@H](NC(=O)CCOCCOCCOCCNC(=O)Nc4ccc(NC(=O)N[C@@H](CC(=O)O)c5cccc(NS(=O)(=O)c6cccc(NC(=O)NCCC)c6)c5)cc4)C(=O)NCCOCCOCCOCCC(=O)N[C@@H](CC(=O)O)C(=O)N4CCC[C@H]4C(=O)N[C@H](C(=O)N=[S@@](C)(=O)Cc4cc5cc(c4)OCCCCOc4cc(F)ccc4-c4nc(ncc4F)N5)C(C)C)cc3)c2)c1 property_label=pIC50 reported_result="8.00 to 8.96"
compound="CCCNC(=O)Nc1cccc(S(=O)(=O)Nc2cccc([C@@H](CC(=O)O)NC(=O)Nc3ccc(NC(=O)NCCOCCOCCOCCC(=O)N[C@@H](CC(=O)O)C(=O)N4CCC[C@H]4C(=O)N[C@H](C(=O)N=S(C)(=O)Cc4cccc(Nc5ncnc(-c6ccc(F)cc6OC)n5)c4)C(C)C)cc3)c2)c1 (relative stereo)" property_label=pIC50 reported_result="< 7.00"
compound=CCCNC(=O)Nc1cccc(S(=O)(=O)Nc2cccc([C@@H](CC(=O)O)NC(=O)Nc3ccc(NC(=O)NCCOCCOCCOCCC(=O)NCCCC[C@H](NC(=O)CCOCCOCCOCCNC(=O)Nc4ccc(NC(=O)N[C@H](CC(=O)O)c5cccc(NS(=O)(=O)c6cccc(NC(=O)NCCC)c6)c5)cc4)C(=O)NCCOCCOCCOCCC(=O)N[C@@H](CC(=O)O)C(=O)N4CCC[C@H]4C(=O)N[C@H](C(=O)N=[S@@](C)(=O)Cc4cc5cc(c4)OCCCCOc4cc(F)ccc4-c4nc(ncc4F)N5)C(C)C)cc3)c2)c1 property_label=pIC50 reported_result="7.00 to 7.96"
compound=CCCNC(=O)Nc1cccc(S(=O)(=O)Nc2cccc([C@@H](CC(=O)O)NC(=O)Nc3ccc(NC(=O)N(C)CCN(C)CCN(C)CC(=O)N[C@@H](CC(N)=O)C(=O)N4CCC[C@H]4C(=O)N[C@H](C(=O)N=[S@@](C)(=O)Cc4cc5cc(c4)OCCCCOc4cc(F)ccc4-c4nc(ncc4F)N5)C(C)C)cc3)c2)c1 property_label=pIC50 reported_result="< 7.00"
